# ASSAYED SYSTEM: AKT1 (PRKBA) (Homo sapiens, UniProt P31749)
# Sequence (P31749 whole entry): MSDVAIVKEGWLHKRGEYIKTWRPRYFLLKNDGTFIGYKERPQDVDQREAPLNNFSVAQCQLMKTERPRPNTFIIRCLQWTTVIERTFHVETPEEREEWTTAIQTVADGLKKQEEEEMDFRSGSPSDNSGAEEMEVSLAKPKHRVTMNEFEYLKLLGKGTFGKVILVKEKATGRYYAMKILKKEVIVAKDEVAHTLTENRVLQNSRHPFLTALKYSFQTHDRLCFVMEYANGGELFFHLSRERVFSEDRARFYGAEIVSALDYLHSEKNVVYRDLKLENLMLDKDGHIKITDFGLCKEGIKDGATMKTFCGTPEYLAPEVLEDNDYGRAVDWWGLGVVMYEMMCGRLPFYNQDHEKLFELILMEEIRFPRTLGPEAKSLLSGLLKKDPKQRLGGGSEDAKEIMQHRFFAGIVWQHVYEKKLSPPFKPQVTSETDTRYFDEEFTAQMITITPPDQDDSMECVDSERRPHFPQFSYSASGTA
MEASURE: pIC50
Give only the number. pIC50 is defined as minus log10 of concentration in molar units.

Hey, AKT1 (PRKBA) (Homo sapiens, UniProt P31749) data for O=c1[nH]/c(=C\c2ccc(OCc3ccncc3)cn2)c(=O)[nH]/c1=C\c1ccccc1 [Compound 2] : pIC50 came out at 5.41

====

# ASSAYED SYSTEM: LMK1 (Homo sapiens, UniProt P53667)
# Sequence (P53667 whole entry): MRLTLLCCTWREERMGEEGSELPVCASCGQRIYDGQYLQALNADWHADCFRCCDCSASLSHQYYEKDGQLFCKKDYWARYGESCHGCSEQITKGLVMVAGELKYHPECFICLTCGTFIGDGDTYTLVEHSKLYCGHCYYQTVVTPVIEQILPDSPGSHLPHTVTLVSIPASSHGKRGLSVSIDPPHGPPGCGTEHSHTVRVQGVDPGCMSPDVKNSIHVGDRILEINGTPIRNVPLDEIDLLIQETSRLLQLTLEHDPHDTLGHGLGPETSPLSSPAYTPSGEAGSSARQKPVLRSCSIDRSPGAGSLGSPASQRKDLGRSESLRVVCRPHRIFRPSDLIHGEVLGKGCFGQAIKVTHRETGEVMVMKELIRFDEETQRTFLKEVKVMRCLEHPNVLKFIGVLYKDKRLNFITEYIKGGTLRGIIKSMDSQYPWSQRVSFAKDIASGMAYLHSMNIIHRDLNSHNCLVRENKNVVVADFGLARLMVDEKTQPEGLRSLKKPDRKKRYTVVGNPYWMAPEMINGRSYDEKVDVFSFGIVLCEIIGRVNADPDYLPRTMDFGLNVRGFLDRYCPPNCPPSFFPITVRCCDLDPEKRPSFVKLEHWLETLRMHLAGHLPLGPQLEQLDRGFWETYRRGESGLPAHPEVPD
MEASURE: pIC50
Quick note: pIC50 values are minus log10 of concentrations in mol/L.

Measured pIC50 for this entry O=c1[nH]/c(=C\c2ccc(OCc3ccncc3)cn2)c(=O)[nH]/c1=C\c1ccccc1 on LMK1 (Homo sapiens, UniProt P53667): 5.24

====

# ASSAYED SYSTEM: SRPK1 (Homo sapiens)
MEASURE: IC50 (µM)
Field format: number, assumed µM, no unit text.

For O=c1[nH]/c(=C\c2ccc(OCc3ccncc3)cn2)c(=O)[nH]/c1=C\c1ccccc1 [Compound 2] on SRPK1 (Homo sapiens), measured IC50 was 10.6

====

# ASSAYED SYSTEM: MET (HGFR) (Homo sapiens, UniProt P08581)
# Sequence (P08581 25-1390): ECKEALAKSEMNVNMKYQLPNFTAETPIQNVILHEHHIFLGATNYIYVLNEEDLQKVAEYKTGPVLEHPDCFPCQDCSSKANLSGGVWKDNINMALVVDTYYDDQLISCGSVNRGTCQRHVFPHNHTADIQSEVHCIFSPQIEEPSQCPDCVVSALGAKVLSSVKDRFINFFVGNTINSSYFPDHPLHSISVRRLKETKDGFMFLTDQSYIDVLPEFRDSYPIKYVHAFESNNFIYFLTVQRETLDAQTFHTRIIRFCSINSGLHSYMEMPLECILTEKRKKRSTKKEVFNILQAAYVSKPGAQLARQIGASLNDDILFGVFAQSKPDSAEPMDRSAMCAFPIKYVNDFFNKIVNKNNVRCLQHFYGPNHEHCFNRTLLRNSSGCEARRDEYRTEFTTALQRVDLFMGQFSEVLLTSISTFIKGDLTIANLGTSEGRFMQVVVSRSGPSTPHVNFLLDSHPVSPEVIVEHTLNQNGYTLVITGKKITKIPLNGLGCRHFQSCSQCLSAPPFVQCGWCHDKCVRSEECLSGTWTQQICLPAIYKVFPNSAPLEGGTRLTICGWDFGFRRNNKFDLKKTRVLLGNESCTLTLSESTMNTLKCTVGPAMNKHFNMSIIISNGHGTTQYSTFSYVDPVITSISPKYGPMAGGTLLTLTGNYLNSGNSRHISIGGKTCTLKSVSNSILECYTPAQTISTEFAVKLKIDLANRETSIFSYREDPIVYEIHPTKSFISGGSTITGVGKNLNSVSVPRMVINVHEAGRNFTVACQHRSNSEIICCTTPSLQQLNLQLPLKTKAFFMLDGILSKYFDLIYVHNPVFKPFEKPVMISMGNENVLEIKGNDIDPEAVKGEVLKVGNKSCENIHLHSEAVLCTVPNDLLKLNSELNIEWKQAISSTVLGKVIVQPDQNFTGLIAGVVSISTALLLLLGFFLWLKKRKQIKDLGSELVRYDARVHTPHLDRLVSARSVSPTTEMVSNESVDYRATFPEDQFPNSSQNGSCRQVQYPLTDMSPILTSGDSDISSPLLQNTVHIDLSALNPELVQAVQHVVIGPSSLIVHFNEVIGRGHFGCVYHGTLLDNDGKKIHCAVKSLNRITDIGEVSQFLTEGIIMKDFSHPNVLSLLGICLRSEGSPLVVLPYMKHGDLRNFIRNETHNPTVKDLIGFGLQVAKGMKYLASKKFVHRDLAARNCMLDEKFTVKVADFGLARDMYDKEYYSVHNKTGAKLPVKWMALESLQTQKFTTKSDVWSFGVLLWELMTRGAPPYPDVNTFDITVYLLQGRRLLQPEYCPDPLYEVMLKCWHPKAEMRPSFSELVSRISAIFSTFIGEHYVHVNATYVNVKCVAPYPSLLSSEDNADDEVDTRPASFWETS
MEASURE: pIC50
Here pIC50 is given on a logarithmic scale as minus log10 of the concentration in mol/L.

// pIC50 value for O=c1[nH]/c(=C\c2ccc(OCc3ccncc3)cn2)c(=O)[nH]/c1=C\c1ccccc1 [Compound 2] : 4.91

====

# ASSAYED SYSTEM: CAMK2D (KCC2D) (Homo sapiens, UniProt Q13557)
# Sequence (Q13557 whole entry): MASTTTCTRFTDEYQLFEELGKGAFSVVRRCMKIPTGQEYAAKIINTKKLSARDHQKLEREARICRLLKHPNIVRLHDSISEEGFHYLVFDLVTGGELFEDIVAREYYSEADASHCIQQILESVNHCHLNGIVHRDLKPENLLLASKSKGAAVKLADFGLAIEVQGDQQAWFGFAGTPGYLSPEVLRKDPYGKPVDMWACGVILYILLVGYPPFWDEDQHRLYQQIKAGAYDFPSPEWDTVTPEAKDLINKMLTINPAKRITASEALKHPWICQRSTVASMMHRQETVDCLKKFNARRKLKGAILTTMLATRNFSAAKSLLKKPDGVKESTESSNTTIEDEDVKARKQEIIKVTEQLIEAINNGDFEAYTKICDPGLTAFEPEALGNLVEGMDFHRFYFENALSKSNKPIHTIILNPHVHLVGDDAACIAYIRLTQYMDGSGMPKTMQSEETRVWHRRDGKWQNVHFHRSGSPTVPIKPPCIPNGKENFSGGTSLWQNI
MEASURE: IC50 (µM)
I only need the number, in µM, no unit after it.

With CAMK2D (KCC2D) (Homo sapiens, UniProt Q13557) as the test system, O=c1[nH]/c(=C\c2ccc(OCc3ccncc3)cn2)c(=O)[nH]/c1=C\c1ccccc1 showed IC50 of 7.39

====

Counter-ions that a name gives are not always drawn.
// reported melting point per item

CC(C)(C)OC(=O)NC(Cc1ccc(OC(C)(C)C)cc1)C(=O)Oc1ccc(/C=c2\[nH]c(=O)/c(=C/c3ccccc3)[nH]c2=O)nc1 (stereo not shown) ... 210 to 212 °C
NC(Cc1ccc(O)cc1)C(=O)Oc1ccc(/C=c2\[nH]c(=O)/c(=C/c3ccccc3)[nH]c2=O)nc1 (stereo not shown) (as salt: trifluoroacetate) [Compound 12, 2,2,2-trifluoroacetate] ... 312 to 314 °C

Notebook: CN1CCN(C(=O)Oc2ccc(/C=c3\[nH]c(=O)/c(=C/c4ccccc4)[nH]c3=O)nc2)CC1 , melting point read as 234 to 235 °C

Documented melting point of O=c1[nH]/c(=C\c2ccc3ccccc3n2)c(=O)[nH]/c1=C\c1ccc(Cl)cc1 : 348 to 349 °C

Notebook: O=c1[nH]/c(=C\c2ccc(OCc3ccncc3)cn2)c(=O)n(Cc2ccncc2)/c1=C\c1ccccc1 , melting point read as 284 °C (dec.)

====

# ASSAYED SYSTEM: RP56KA5 (MSK1) (Homo sapiens, UniProt O75582)
# Sequence (O75582 whole entry): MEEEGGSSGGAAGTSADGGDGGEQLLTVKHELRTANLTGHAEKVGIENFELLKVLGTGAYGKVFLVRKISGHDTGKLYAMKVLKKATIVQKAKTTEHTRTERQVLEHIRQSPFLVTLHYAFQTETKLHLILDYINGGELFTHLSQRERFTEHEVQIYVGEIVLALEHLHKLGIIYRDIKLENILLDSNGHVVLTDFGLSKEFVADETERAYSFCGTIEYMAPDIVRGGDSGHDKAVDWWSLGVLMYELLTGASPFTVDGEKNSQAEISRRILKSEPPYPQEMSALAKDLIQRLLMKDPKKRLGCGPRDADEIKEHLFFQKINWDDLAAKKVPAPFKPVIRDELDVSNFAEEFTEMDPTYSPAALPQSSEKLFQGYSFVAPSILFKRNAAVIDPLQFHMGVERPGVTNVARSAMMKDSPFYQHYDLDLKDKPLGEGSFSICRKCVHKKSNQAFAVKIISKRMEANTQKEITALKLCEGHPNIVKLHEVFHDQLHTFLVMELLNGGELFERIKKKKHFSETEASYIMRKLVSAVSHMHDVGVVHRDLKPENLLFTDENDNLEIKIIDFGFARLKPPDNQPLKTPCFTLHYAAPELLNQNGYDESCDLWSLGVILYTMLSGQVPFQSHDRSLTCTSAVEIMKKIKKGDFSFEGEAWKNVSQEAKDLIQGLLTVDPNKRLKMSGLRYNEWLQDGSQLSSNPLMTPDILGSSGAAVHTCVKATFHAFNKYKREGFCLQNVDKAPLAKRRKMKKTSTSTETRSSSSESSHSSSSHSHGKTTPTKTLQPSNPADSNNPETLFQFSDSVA
# PROTOCOL DESCRIPTION: Kinome inhibition assay
# Type: biochemical
# CONDITION SET: RP56KA5 (MSK1), Human
# Method: Kinome inhibition studies were conducted following the procedures described in literature. […] In general, each purified kinase was incubated with its substrate in buffer (MOPS buffer or HEPES buffer) containing an essential metal co-enzyme or cofactor, antioxidant, and ATP (gamma-P^32 radio-labeled ATP or cold ATP). […] The phosphorylation level of the substrate was monitored ether by quantification of the radio-labeled substrate or by quantification of phosphor-substrate specific antibodies. […]
MEASURE: IC50 (µM)
State the answer as a number, implicitly in µM.

Lab note: compound O=c1[nH]/c(=C\c2ccc(OCc3ccncc3)cn2)c(=O)[nH]/c1=C\c1ccccc1 tested on RP56KA5 (MSK1) (Homo sapiens, UniProt O75582); recorded IC50 was 7.88

====

# ASSAYED SYSTEM: ABL1 (Mus musculus, UniProt P00520)
MEASURE: pIC50
Note on pIC50: it is the negative log10 of concentration, concentration in mol/L.

Test item O=c1[nH]/c(=C\c2ccc(OCc3ccncc3)cn2)c(=O)[nH]/c1=C\c1ccccc1 ; ABL1 (Mus musculus, UniProt P00520); reported pIC50 was 5.50

====

# ASSAYED SYSTEM: RET (Homo sapiens, UniProt P07949)
# PROTOCOL DESCRIPTION: Kinome inhibition assay
# Format: biochemical
# CONDITION SET: RET, Human
MEASURE: IC50 (µM)
Quick reminder: number only, in µM, skip the unit.

What the record says about O=c1[nH]/c(=C\c2ccc(OCc3ccncc3)cn2)c(=O)[nH]/c1=C\c1ccccc1 [Compound 2] : IC50 is 4.89

====

# ASSAYED SYSTEM: PIM1 (Homo sapiens)
# Sequence (P11309 whole entry): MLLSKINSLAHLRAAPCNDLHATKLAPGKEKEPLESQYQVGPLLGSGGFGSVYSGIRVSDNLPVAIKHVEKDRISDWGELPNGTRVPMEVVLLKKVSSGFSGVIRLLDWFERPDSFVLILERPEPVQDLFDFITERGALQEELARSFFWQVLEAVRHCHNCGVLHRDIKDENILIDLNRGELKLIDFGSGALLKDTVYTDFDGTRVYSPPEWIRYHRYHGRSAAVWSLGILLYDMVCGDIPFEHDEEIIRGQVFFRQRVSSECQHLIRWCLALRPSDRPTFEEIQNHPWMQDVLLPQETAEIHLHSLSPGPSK
MEASURE: pIC50
# pIC50 = -log10(concentration in molar units)

Form: item O=c1[nH]/c(=C\c2ccc(OCc3ccncc3)cn2)c(=O)[nH]/c1=C\c1ccccc1 ; test system PIM1 (Homo sapiens); pIC50: 5.02

====

# ASSAYED SYSTEM: AURKA (Aurora-A) (Homo sapiens)
# Sequence (O14965 1-403): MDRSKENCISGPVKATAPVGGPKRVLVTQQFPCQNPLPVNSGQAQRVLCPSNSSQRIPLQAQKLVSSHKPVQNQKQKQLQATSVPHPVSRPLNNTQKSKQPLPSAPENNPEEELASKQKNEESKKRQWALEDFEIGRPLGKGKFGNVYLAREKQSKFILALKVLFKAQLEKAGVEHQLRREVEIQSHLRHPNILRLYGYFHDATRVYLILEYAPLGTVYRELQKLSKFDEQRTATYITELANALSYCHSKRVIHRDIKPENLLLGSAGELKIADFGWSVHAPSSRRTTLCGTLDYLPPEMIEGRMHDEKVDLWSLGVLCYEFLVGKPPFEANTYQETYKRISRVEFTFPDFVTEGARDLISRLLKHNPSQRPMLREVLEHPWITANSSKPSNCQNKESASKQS
MEASURE: IC50 (µM)
Just the number in µM, nothing appended.

The recorded IC50 for entry O=c1[nH]/c(=C\c2ccc(OCc3ccncc3)cn2)c(=O)[nH]/c1=C\c1ccccc1 equals 13.7

====

# ASSAYED SYSTEM: FER (TYK3) (Homo sapiens)
# Sequence (P16591 whole entry): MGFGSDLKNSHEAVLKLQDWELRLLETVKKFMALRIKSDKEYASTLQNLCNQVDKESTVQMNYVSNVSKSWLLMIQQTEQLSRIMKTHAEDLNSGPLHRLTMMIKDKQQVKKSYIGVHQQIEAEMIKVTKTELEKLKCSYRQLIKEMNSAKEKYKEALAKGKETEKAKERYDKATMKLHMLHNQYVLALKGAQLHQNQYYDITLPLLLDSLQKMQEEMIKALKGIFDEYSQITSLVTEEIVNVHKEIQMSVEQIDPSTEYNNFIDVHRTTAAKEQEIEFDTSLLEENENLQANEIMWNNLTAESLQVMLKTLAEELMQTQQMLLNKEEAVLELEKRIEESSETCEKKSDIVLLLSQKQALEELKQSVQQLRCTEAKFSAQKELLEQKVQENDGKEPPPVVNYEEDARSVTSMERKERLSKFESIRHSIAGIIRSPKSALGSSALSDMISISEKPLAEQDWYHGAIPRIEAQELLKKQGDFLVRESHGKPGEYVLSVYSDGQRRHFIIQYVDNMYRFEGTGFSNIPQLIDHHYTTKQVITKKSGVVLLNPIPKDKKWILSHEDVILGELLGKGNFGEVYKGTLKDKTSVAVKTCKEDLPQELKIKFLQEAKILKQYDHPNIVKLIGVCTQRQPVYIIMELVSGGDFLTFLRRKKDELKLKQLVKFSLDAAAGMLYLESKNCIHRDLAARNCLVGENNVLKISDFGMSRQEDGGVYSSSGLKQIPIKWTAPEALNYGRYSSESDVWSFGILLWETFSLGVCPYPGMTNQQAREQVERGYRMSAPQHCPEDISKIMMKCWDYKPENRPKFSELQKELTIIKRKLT
MEASURE: IC50 (µM)
Hi! Could you send only the number? It should be in µM, unit omitted.

Lookup result for O=c1[nH]/c(=C\c2ccc(OCc3ccncc3)cn2)c(=O)[nH]/c1=C\c1ccccc1 [Compound 2] ; measured IC50: 7.23

====

# ASSAYED SYSTEM: ERBB2 (HER2) (Homo sapiens, UniProt P04626)
MEASURE: pIC50
// pIC50 here means minus log10 of the molar concentration (mol/L)

Value (pIC50, ERBB2 (HER2) (Homo sapiens, UniProt P04626)) for record O=c1[nH]/c(=C\c2ccc(OCc3ccncc3)cn2)c(=O)[nH]/c1=C\c1ccccc1 = 5.25

====

Where a name gives a salt, the structure may show the parent alone.
MEASURE: melting point

Reference set, count: 5
O=c1[nH]/c(=C\c2ccc3ccccc3n2)c(=O)[nH]/c1=C\c1ccc(F)cc1 [Compound 22] ... 319 to 320 °C
O=c1[nH]/c(=C\c2ccc3ccccc3n2)c(=O)[nH]/c1=C\c1ccc2ccccc2n1 [Compound 20] ... 374 to 375 °C
CC(C)(C)OC(=O)NC(Cc1ccccc1)C(=O)Oc1ccc(/C=c2\[nH]c(=O)/c(=C/c3ccccc3)[nH]c2=O)nc1 (centres unmarked) [Compound 10] ... 188 °C
O=c1[nH]/c(=C\c2ccc3ccccc3n2)c(=O)[nH]/c1=C\c1cccnc1 [Compound 21] ... 305 to 306 °C
NC(C(=O)Oc1ccc(/C=c2\[nH]c(=O)/c(=C/c3ccccc3)[nH]c2=O)nc1)c1ccccc1 (centres unmarked) (as salt: trifluoroacetate) [Compound 9] ... 280 °C

Short answer for NC(Cc1ccccc1)C(=O)Oc1ccc(/C=c2\[nH]c(=O)/c(=C/c3ccccc3)[nH]c2=O)nc1 (centres unmarked) (as salt: trifluoroacetate) [Compound 11, 2,2,2-trifluoroacetate] : melting point was 285 to 286 °C

CC(=O)N1CC(=O)N/C(=C\c2ccc3ccccc3n2)C1=O [Compound 19] yielded melting point of 262 to 263 °C

Form field melting point, entry CN(C)CCCOc1cccc(/C=c2\[nH]c(=O)/c(=C/c3ccc(OCc4ccccc4)cn3)[nH]c2=O)c1 [Compound 17] : 286 °C (dec.)

Sure, the documented melting point for O=c1[nH]/c(=C\c2ccc(OCc3ccccn3)cn2)c(=O)[nH]/c1=C\c1ccccc1 (as salt: sulfonic acid salt) [Compound 4] is 266 to 267 °C

Looking up O=c1[nH]/c(=C\c2ccc(OCc3cccnc3)cn2)c(=O)[nH]/c1=C\c1ccccc1 (as salt: sulfonic acid salt) [Compound 3] , I see its melting point listed as 228 to 230 °C

Briefly, melting point measured for O=c1[nH]/c(=C\c2cccs2)c(=O)[nH]/c1=C\c1ccc2ccccc2n1 [Compound 24] : 288 to 289 °C

Looking up CC(=O)N1CC(=O)N/C(=C\c2cnc3ccccc3c2)C1=O [Compound 27] , I found its melting point recorded as 261 to 262 °C

Input O=c1[nH]/c(=C\c2ccc(OCCO)cn2)c(=O)n(CCO)/c1=C\c1ccccc1 [Compound 18] . Output melting point: 326 °C (dec.)

melting point for O=c1[nH]/c(=C\c2ccnc3ccccc23)c(=O)[nH]/c1=C\c1ccnc2ccccc12 [Compound 26] is 374 to 375 °C
